Below: compounds with IC50 recorded for Xanthine dehydrogenase/oxidase (Bos taurus, UniProt P80457) in separate published works.
Response field label takes Yes when IC50 is strictly below 10 µM and No in all other cases.

Field: example entries. Status: answers known.
[[record]]
compound = "Cc1ccc(C(=O)Nc2cccc(C(=O)/C=C/c3ccc4c(c3)c3ccccc3n4C)c2)cc1"
label_class = "Yes"

[[record]]
compound = "CC(C)CNc1ccc(-n2cc(C(=O)O)cn2)cc1C#N"
label_class = "Yes"

[[record]]
compound = "CC(=O)NC(CC(=O)c1ccc(Cl)cc1)c1ccc(Cl)cc1 (stereo not given)"
label_class = "No"

[[record]]
compound = "CC(=O)NC(CC(=O)c1ccccc1)c1cccc([N+](=O)[O-])c1 (stereo not given)"
label_class = "No"

[[record]]
compound = "CC(C)(C)NC(=O)/C=C/c1ccc(O)c2oc(-c3ccc(O)c(O)c3)cc12"
label_class = "No"


### Prompt Please state whether IC50 is below 10 µM for COc1ccc(Nc2ncnc3c2C(c2ccc(OC)c(OC)c2)C2=C(CCCC2=O)O3)cc1 (stereo not given)
### Response Yes

### Prompt Please state whether IC50 is below 10 µM for CC(C)COc1ccc(-c2cc(C(=O)O)nc(N)n2)cc1C#N
### Response Yes

### Prompt Please state whether IC50 is below 10 µM for N#Cc1cc(-c2cc(=O)[nH]c(N)n2)ccc1OCc1ccc(C(=O)O)cc1
### Response Yes

### Prompt Please state whether IC50 is below 10 µM for CC(C)(C)c1ccc(COc2ccc(-c3cc(C(=O)O)[n-][o+]3)cc2[N+](=O)[O-])cc1
### Response No

====

Below: compounds with IC50 recorded for Xanthine dehydrogenase/oxidase (Bos taurus) in separate published works.
All answers are understood in µM, so give the number only.

[[record]]
compound = "COc1ccc(C(CC(=O)c2ccc([N+](=O)[O-])cc2)NC(C)=O)cc1 (stereo unspecified)"
measured_endpoint = "IC50"
reported_measurement = 52.6


Sample N#Cc1cc(-c2nccc(O)n2)ccc1OCc1cccc(F)c1 ; IC50 observed: 0.077

Sample N#Cc1cn(CC2CC2)c2ccc(-c3noc(=O)[nH]3)cc12 ; IC50 observed: 0.88

Sample CC(=O)NC(CC(=O)c1ccccc1)c1ccco1 (stereo unspecified) ; IC50 observed: 63

Sample CC(=O)Nc1ccc(-c2cnn3c(O)cc(O)nc23)cc1 ; IC50 observed: 0.089

Sample CCCCCn1cc(COc2ccc(F)cc2C=O)nn1 ; IC50 observed: 2.99

====

Below: compounds with pIC50 recorded for Xanthine dehydrogenase/oxidase (Bos taurus) in separate published works.
pIC50: −log10 of the molar value.
Rule: pIC50 under 5 gives 0, otherwise 1.

Field: example entries. Status: answers known.
[[record]]
compound = "Cc1ccccc1Cn1cc(COc2ccc(F)cc2C=O)nn1"
label_class = 1

[[record]]
compound = "N#Cc1nc(-c2ccncc2)[nH]c1C(N)=O"
label_class = 1

[[record]]
compound = "COc1ccc(Nc2ncnc3c2C(c2cccc([N+](=O)[O-])c2)C2=C(CCCC2=O)O3)cc1 (configuration not stated)"
label_class = 0

[[record]]
compound = "CCCOC(=O)/C=C/c1ccc(O)c2oc(-c3ccc(O)c(O)c3)cc12"
label_class = 0

[[record]]
compound = "Cc1nc(-c2ccc(OCc3ccc(Br)cc3)c(C#N)c2)[nH]c(=O)c1C(=O)O"
label_class = 1

[[record]]
compound = "O=c1c2cc(O)c(O)cc2oc2cc(O)cc(OCc3ccc(Cl)cc3)c12"
label_class = 1

[[record]]
compound = "C=C(C)COc1ccc(-c2ncc(C(=O)O)c(=O)[nH]2)cc1C#N"
label_class = 1

[[record]]
compound = "CCC(C)Oc1ccc(-c2nc(-c3ccncc3)cn2O)cc1C#N (configuration not stated)"
label_class = 1


### Prompt Does pIC50 meet or surpass 5 for N#Cc1cc(-c2ccnc(N)n2)ccc1OCC1CCCCC1 ?
### Response 1

### Prompt Does pIC50 meet or surpass 5 for Brc1nc(-c2cccnc2)[nH]c1Br ?
### Response 0

### Prompt Does pIC50 meet or surpass 5 for COc1ccc(C(CC(=O)c2ccccc2)NC(C)=O)cc1OC (configuration not stated) ?
### Response 0

### Prompt Does pIC50 meet or surpass 5 for CC(C)(C)c1ccc(COc2ccc(-c3ncc(C(=O)O)c(=O)[nH]3)cc2C#N)cc1 ?
### Response 1

### Prompt Does pIC50 meet or surpass 5 for COc1ccc(Nc2ncnc3c2C(c2ccc(Cl)cc2)c2c(c(=O)oc4ccccc24)O3)cc1 (configuration not stated) ?
### Response 0

### Prompt Does pIC50 meet or surpass 5 for O=C(/C=C/c1ccc(O)c2oc(-c3ccc(O)c(O)c3)cc12)Nc1ccc(Cl)cc1 ?
### Response 0

### Prompt Does pIC50 meet or surpass 5 for Oc1cc(O)n2ncc(-c3ccc(Br)cc3)c2n1 ?
### Response 1

### Prompt Does pIC50 meet or surpass 5 for Cn1c2ccccc2c2cc(/C=C/C(=O)c3cccc(NC(=O)c4cccc(Cl)c4)c3)ccc21 ?
### Response 1

### Prompt Does pIC50 meet or surpass 5 for Cc1ccc(C)c(COc2ccc3c(c2)O/C(=C\c2ccc(C(=O)O)cc2)C3=O)c1 ?
### Response 1

### Prompt Does pIC50 meet or surpass 5 for N#Cc1cc(-c2cc(=O)[nH]c(N)n2)ccc1OCC1CCC1 ?
### Response 1

### Prompt Does pIC50 meet or surpass 5 for FC(F)(F)c1cnc(-c2cccnc2)[nH]1 ?
### Response 0
